assay target: T1, human MSLN full-length protein (NCBI: AAH09272.1) expressed on HEK293T-hMSLN-B8 cells (human, UniProt Q13421 296-598)
T1 construct: Whole encoded precursor
T1 sequence (Q13421 other isoform, or with tags, fused parts or gaps limits assumed): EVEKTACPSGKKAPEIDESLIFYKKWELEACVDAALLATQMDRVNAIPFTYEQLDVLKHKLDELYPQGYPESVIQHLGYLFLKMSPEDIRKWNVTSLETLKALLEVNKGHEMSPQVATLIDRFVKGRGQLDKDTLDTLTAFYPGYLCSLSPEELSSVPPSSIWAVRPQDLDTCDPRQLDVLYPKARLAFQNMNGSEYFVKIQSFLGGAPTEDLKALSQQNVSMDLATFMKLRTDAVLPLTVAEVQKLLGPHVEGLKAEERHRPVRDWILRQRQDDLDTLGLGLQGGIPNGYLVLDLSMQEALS
experiment notes: FACS on HEK293T-hMSLN-B8 cells
parameter measured: Maximum mean fluorescence intensity
Just the number, please, no unit attached.

Task: # return recorded Maximum mean fluorescence intensity for entry S009-F1.25.10 (antibody, human IgG1, kappa, V domains shown, human-murine chimeric antibody, human IgG1/kappa constant regions) VH: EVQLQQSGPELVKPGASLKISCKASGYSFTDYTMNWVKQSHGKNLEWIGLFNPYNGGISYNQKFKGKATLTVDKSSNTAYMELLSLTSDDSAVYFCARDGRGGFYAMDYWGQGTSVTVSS VL: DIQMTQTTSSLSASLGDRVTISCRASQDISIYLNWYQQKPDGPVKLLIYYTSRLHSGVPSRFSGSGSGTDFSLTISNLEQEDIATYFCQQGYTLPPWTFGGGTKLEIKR
Result: 41900

Task: Answer with reported Maximum mean fluorescence intensity of S009-F1.56.1 (antibody, human IgG1, kappa, V domains shown, human-murine chimeric antibody, human IgG1/kappa constant regions) VH: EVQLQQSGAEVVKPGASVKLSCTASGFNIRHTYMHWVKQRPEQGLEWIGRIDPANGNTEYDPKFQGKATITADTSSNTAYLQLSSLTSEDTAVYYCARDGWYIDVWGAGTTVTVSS VL: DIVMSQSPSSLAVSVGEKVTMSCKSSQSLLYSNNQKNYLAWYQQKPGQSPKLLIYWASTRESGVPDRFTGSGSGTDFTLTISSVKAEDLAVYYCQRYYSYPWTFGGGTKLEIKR
Result: 96300

Task: Consider the binder S009-F1.2.12 (antibody, human IgG1, kappa, V domains shown, human-murine chimeric antibody, human IgG1/kappa constant regions) VH: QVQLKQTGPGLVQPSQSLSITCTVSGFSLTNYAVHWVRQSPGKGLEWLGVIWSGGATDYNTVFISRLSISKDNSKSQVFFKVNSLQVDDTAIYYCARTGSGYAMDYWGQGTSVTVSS VL: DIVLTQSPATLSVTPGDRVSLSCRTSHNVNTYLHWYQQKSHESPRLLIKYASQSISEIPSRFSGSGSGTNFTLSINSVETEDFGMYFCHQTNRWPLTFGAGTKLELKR . State its measured Maximum mean fluorescence intensity.
Result: 87200
